Values compiled from PubChem BioAssay AID2060910.

- System: 242566-281-R-J2-PDC complex spheroid viability
- testSummary: Anticancer human tumor 242566-281-R-J2-PDC patient-derived pancreatic carcinoma cell line growth inhibition [RAS]
- conditionInfo: second compound 0.3 µM; first compound 0.00316 µM; active compounds read low
Reported values of viability, T/C for individual entries

Value lookup for viability, T/C; key = CCN1CCN(Cc2ccc(Nc3ncc(F)c(-c4cc(F)c5nc(C)n(C(C)C)c5c4)n3)nc2)CC1 + CCn1c(-c2cccnc2C(C)OC)c2c3cc(ccc31)N1CCOC(CC(NC(=O)C(C(C)C)N(C)C(=O)C3(F)CCN(C(=O)C#CC(C)(C)N(C)C)CC3)C(=O)N3CCCC(N3)C(=O)OCC(C)(C)C2)C1
83.5%

What about this compound? C=CC(=O)N1CCN(c2nc(OCC3CCCN3C)nc3c(F)c(-c4nc(N)cc(C)c4C(F)(F)F)c(Cl)cc23)C(C)C1 (centres undefined) + CCn1c(-c2cc(N3CCN(C)CC3)cnc2C(C)OC)c2c3cc(ccc31)-c1csc(n1)CC(NC(=O)C1CC1C)C(=O)N1CCCC(N1)C(=O)OCC(C)(C)C2
21.6%

What about this compound? C=CC(=O)Nc1cc(Nc2nccc(-c3cn(C)c4ccccc34)n2)c(OC)cc1N(C)CCN(C)C + CCn1c(-c2cccnc2C(C)OC)c2c3cc(ccc31)N1CCOC(CC(NC(=O)C(C(C)C)N(C)C(=O)C3(F)CCN(C(=O)C#CC(C)(C)N(C)C)CC3)C(=O)N3CCCC(N3)C(=O)OCC(C)(C)C2)C1
94.9%

What about this compound? C=CC(=O)Nc1cc(Nc2nccc(-c3cn(C)c4ccccc34)n2)c(OC)cc1N(C)CCN(C)C + CCn1c(-c2cc(N3CCN(C)CC3)cnc2C(C)OC)c2c3cc(ccc31)-c1csc(n1)CC(NC(=O)C1CC1C)C(=O)N1CCCC(N1)C(=O)OCC(C)(C)C2
18.6%

* * *

- Tested on: 242566-281-R-J2-PDC complex spheroid viability
- testSummary: Anticancer human tumor 242566-281-R-J2-PDC cell line growth inhibition [RAS];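 also: spheroids exposed to compound for 7 days before readout; 100% = DMSO vehicle control wells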
- conditionInfo: second compound 0.01 µM; first compound 1 µM; active compounds read low
assayEndpoint: viability, T/C

>>> val("Cc1nc(N2CCC3(CC2)COC(C)C3N)c(CO)nc1Sc1ccnc(N)c1Cl (stereo not drawn) + C=CC(=O)N1CCN(c2nc(OCC3CCCN3C)nc3c(F)c(-c4nc(N)cc(C)c4C(F)(F)F)c(Cl)cc23)C(C)C1")
"70.8%"
>>> val("O=C(c1ccc(F)c(F)c1Nc1ccc(I)cc1F)N1CC(O)([C@@H]2CCCCN2)C1 + C=CC(=O)N1CCN(c2nc(OCC3CCCN3C)nc3c(F)c(-c4nc(N)cc(C)c4C(F)(F)F)c(Cl)cc23)C(C)C1")
"47.4%"

Would you kindly look at the next entry?
Value lookup for viability, T/C; key = CC(C)NCC(C(=O)N1CCN(c2ncnc3c2C(C)CC3O)CC1)c1ccc(Cl)cc1 (stereo not drawn) + C=CC(=O)N1CCN(c2nc(OCC3CCCN3C)nc3c(F)c(-c4nc(N)cc(C)c4C(F)(F)F)c(Cl)cc23)C(C)C1
98.7%

* * *

- Tested on: 242566-281-R-J2-PDC complex spheroid viability
- testSummary: Anticancer human tumor 242566-281-R-J2-PDC cell line growth inhibition [RAS];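 also: spheroids exposed to compound for 7 days before readout; 100% = DMSO vehicle control wells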
- conditionInfo: second compound 0.0949 µM; first compound 1 µM; active compounds read low
Reported values of viability, T/C for individual entries
Form entry: value (%) — number only.

Please review the entries below; each comes with its answer.
>>> val("CCN1CCN(Cc2ccc(Nc3ncc(F)c(-c4cc(F)c5nc(C)n(C(C)C)c5c4)n3)nc2)CC1 + CCn1c(-c2cccnc2C(C)OC)c2c3cc(ccc31)N1CCOC(CC(NC(=O)C(C(C)C)N(C)C(=O)C3(F)CCN(C(=O)C#CC(C)(C)N(C)C)CC3)C(=O)N3CCCC(N3)C(=O)OCC(C)(C)C2)C1")
107
>>> val("CC(=O)OC12COC1CC(O)C1(C)C(=O)C(O)C3=C(C)C(OC(=O)C(O)C(NC(=O)OC(C)(C)C)c4ccccc4)CC(O)(C(OC(=O)c4ccccc4)C21)C3(C)C (stereo not drawn) + CCn1c(-c2cccnc2C(C)OC)c2c3cc(ccc31)N1CCOC(CC(NC(=O)C(C(C)C)N(C)C(=O)C3(F)CCN(C(=O)C#CC(C)(C)N(C)C)CC3)C(=O)N3CCCC(N3)C(=O)OCC(C)(C)C2)C1")
33.2

Value lookup for viability, T/C; key = Cc1nc(N2CCC3(CC2)COC(C)C3N)c(CO)nc1Sc1ccnc(N)c1Cl (stereo not drawn) + CCn1c(-c2cccnc2C(C)OC)c2c3cc(ccc31)N1CCOC(CC(NC(=O)C(C(C)C)N(C)C(=O)C3(F)CCN(C(=O)C#CC(C)(C)N(C)C)CC3)C(=O)N3CCCC(N3)C(=O)OCC(C)(C)C2)C1
71.1

* * *

- System: 242566-281-R-J2-PDC complex spheroid viability
- testSummary: Anticancer human tumor 242566-281-R-J2-PDC cell line growth inhibition [RAS];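 also: spheroids exposed to compound for 7 days before readout; 100% = DMSO vehicle control wells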
- conditionInfo: second compound 10 µM; first compound 0.01 µM; active compounds read low
- From the text: RAS pathway inhibitors in Combinations in Complex Spheroids A high-throughput screen of multi-cell type tumor spheroids was designed to identify active combinations of RAS pathway inhibitors and targeted small molecules. Complex spheroids include a stromal component modeled by human endothelial cells (HUVEC) and fibroblasts modeled by human mesenchymal stem cells (MSCs). […] Compounds. […] If the clinical Cmax for an agent had not been determined, the highest concentration tested was 10 microM. […]
assayEndpoint: viability, T/C (%)
Form entry: value (%) — number only.

>>> val("CC(C)n1nc(-c2ccc3oc(N)nc3c2)c2c(N)ncnc21 + C#Cc1c(F)ccc2cc(O)cc(-c3ncc4c(N5CC6CCC(C5)N6)nc(OCC56CCCN5CC(F)C6)nc4c3F)c12")
29.1

Value lookup for viability, T/C; key = Nc1ccn(C2OC(CO)C(O)C2(F)F)c(=O)n1 (centres undefined) + C#Cc1c(F)ccc2cc(O)cc(-c3ncc4c(N5CC6CCC(C5)N6)nc(OCC56CCCN5CC(F)C6)nc4c3F)c12
53.9

What about this compound? C=CC(=O)Nc1cc(Nc2nccc(-c3cn(C)c4ccccc34)n2)c(OC)cc1N(C)CCN(C)C + C#Cc1c(F)ccc2cc(O)cc(-c3ncc4c(N5CC6CCC(C5)N6)nc(OCC56CCCN5CC(F)C6)nc4c3F)c12
57.1

What about this compound? O=C(c1ccc(F)c(F)c1Nc1ccc(I)cc1F)N1CC(O)([C@@H]2CCCCN2)C1 + C#Cc1c(F)ccc2cc(O)cc(-c3ncc4c(N5CC6CCC(C5)N6)nc(OCC56CCCN5CC(F)C6)nc4c3F)c12
41.3

* * *

- Tested on: 242566-281-R-J2-PDC complex spheroid viability
- testSummary: Anticancer human tumor 242566-281-R-J2-PDC cell line growth inhibition [RAS];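 also: spheroids exposed to compound for 7 days before readout; 100% = DMSO vehicle control wells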
- conditionInfo: second compound 0.3 µM; first compound 0.00316 µM; active compounds read low
viability, T/C under 20% gets YES, anything at or over 20% gets NO.

Worked examples, 4 compounds total:
>>> categorylabel("C=CC(=O)N1CCN(c2nc(OCC3CCCN3C)nc3c(F)c(-c4nc(N)cc(C)c4C(F)(F)F)c(Cl)cc23)C(C)C1 (stereo unspecified) + CCn1c(-c2cccnc2C(C)OC)c2c3cc(ccc31)N1CCOC(CC(NC(=O)C(C(C)C)N(C)C(=O)C3(F)CCN(C(=O)C#CC(C)(C)N(C)C)CC3)C(=O)N3CCCC(N3)C(=O)OCC(C)(C)C2)C1")
"NO"
>>> categorylabel("CC(C)n1nc(-c2ccc3oc(N)nc3c2)c2c(N)ncnc21 + CCn1c(-c2cc(N3CCN(C)CC3)cnc2C(C)OC)c2c3cc(ccc31)-c1csc(n1)CC(NC(=O)C1CC1C)C(=O)N1CCCC(N1)C(=O)OCC(C)(C)C2")
"YES"
>>> categorylabel("O=C(c1ccc(F)c(F)c1Nc1ccc(I)cc1F)N1CC(O)([C@@H]2CCCCN2)C1 + CCn1c(-c2cc(N3CCN(C)CC3)cnc2C(C)OC)c2c3cc(ccc31)-c1csc(n1)CC(NC(=O)C1CC1C)C(=O)N1CCCC(N1)C(=O)OCC(C)(C)C2")
"YES"
>>> categorylabel("Nc1ccn(C2OC(CO)C(O)C2(F)F)c(=O)n1 (stereo unspecified) + CCn1c(-c2cccnc2C(C)OC)c2c3cc(ccc31)N1CCOC(CC(NC(=O)C(C(C)C)N(C)C(=O)C3(F)CCN(C(=O)C#CC(C)(C)N(C)C)CC3)C(=O)N3CCCC(N3)C(=O)OCC(C)(C)C2)C1")
"NO"

Hi there! Is viability, T/C for O=C(c1ccc(F)c(F)c1Nc1ccc(I)cc1F)N1CC(O)([C@@H]2CCCCN2)C1 + CCn1c(-c2cccnc2C(C)OC)c2c3cc(ccc31)N1CCOC(CC(NC(=O)C(C(C)C)N(C)C(=O)C3(F)CCN(C(=O)C#CC(C)(C)N(C)C)CC3)C(=O)N3CCCC(N3)C(=O)OCC(C)(C)C2)C1 below 20%, do you know?
NO
